All figures here come from ChEMBL document CHEMBL3822381.

Target: Amyloid-beta precursor protein (Homo sapiens)
Assay: Inhibition of amyloid beta (1 to 42) (unknown origin) aggregation at 80 uM by ThT-fluorescence assay relative to control
Residues, ends and D or L forms follow the SMILES beside them. *: point of attachment. Trolox = Cc1c(C)c2c(c(C)c1O)CCC(C)(C(=O)*)O2
compounds and their reported inhibition
Kindly answer with a numeric value in %, unit omitted.

Query :: Using the record for CC[C@H](C)[C@H](NC(=O)[C@@H](NC(=O)C1(C)CCc2c(C)c(O)c(C)c(C)c2O1)C(C)C)C(=O)N[C@@H](C)C(=O)O (stereo partly drawn) , report its inhibition.
Result :: 2.8

Query :: What do you have for CC[C@H](C)[C@H](NC(=O)[C@@H](NC(=O)[C@@H](NC(=O)CNC(=O)CNC(=O)[C@@H](NC(=O)[C@H](CCSC)NC(=O)[C@H](CC(C)C)NC(=O)C1(C)CCc2c(C)c(O)c(C)c(C)c2O1)C(C)C)C(C)C)C(C)C)C(=O)N[C@@H](C)C(=O)O (stereo partly drawn) ?
Result :: 39.5

Query :: What do you have for CC[C@H](C)[C@H](NC(=O)[C@@H](NC(=O)C1(C)CCc2c(C)c(O)c(C)c(C)c2O1)C(C)C)C(=O)N[C@@H](C)C(=O)N[C@H](C(=O)O)[C@@H](C)O (stereo partly drawn) (Trolox-VIAT-OH) ?
Result :: 6.6
